// data source = patent US20160251440A1

target: human IL12Rβ1, cell-expressed (human, UniProt P42701 24-662); assay: cell-based or functional assay
quantityKind: fold ctrl, IFNγ release, PBMC D840

Answered examples (3):
CD4#8-35GS-IL12Rb1#30 (bispecific antibody, also called BI#40; T023200040) EVQLVESGGGSVQPGGSLTLSCGTSGRTFNVMGWFRQAPGKEREFVAAVRWSSTGIYYTQYADSVKSRFTISRDNAKNTVYLEMNSLKPEDTAVYYCAADTYNSNPARWDGYDFRGQGTLVTVSSGGGGSGGGGSGGGGSGGGGSGGGGSGGGGSGGGGSEVQLVESGGGLVQTGGSLRLSCAASGRTPRLVAMGWFRQTPGKEREFVGEIILSKGFTYYADSVKGRFTISRVNAKNTITMYLQMNSLKSEDTAVYYCAGRQNWSGSPARTNEYEYWGQGTLVTVSS :: 47 fold
IL12Rb1#30-35GS-CD4#8 (bispecific antibody, also called BI#46; T023200046) EVQLVESGGGLVQTGGSLRLSCAASGRTPRLVAMGWFRQTPGKEREFVGEIILSKGFTYYADSVKGRFTISRVNAKNTITMYLQMNSLKSEDTAVYYCAGRQNWSGSPARTNEYEYWGQGTLVTVSSGGGGSGGGGSGGGGSGGGGSGGGGSGGGGSGGGGSEVQLVESGGGSVQPGGSLTLSCGTSGRTFNVMGWFRQAPGKEREFVAAVRWSSTGIYYTQYADSVKSRFTISRDNAKNTVYLEMNSLKPEDTAVYYCAADTYNSNPARWDGYDFRGQGTLVTVSS :: 38 fold
IL12Rb1#31-35GS-CD4#8 (bispecific antibody, also called BI#47; T023200047) EVQLVESGGGLVQTGGSLRLSCAASGRTPSIIAMGWFRQTPGKEREFVGEIILSKGFTYYADSVKGRFTISRANAKNTITMYLQMNSLKSEDTAVYYCAARQNWSGNPTRTNEYEYWGQGTLVTVSSGGGGSGGGGSGGGGSGGGGSGGGGSGGGGSGGGGSEVQLVESGGGSVQPGGSLTLSCGTSGRTFNVMGWFRQAPGKEREFVAAVRWSSTGIYYTQYADSVKSRFTISRDNAKNTVYLEMNSLKPEDTAVYYCAADTYNSNPARWDGYDFRGQGTLVTVSS :: 41 fold

Value of measured fold ctrl, IFNγ release, PBMC D840 for the entry CD4#8-35GS-IL12Rb1#31 (bispecific antibody, also called BI#41; T023200041) EVQLVESGGGSVQPGGSLTLSCGTSGRTFNVMGWFRQAPGKEREFVAAVRWSSTGIYYTQYADSVKSRFTISRDNAKNTVYLEMNSLKPEDTAVYYCAADTYNSNPARWDGYDFRGQGTLVTVSSGGGGSGGGGSGGGGSGGGGSGGGGSGGGGSGGGGSEVQLVESGGGLVQTGGSLRLSCAASGRTPSIIAMGWFRQTPGKEREFVGEIILSKGFTYYADSVKGRFTISRANAKNTITMYLQMNSLKSEDTAVYYCAARQNWSGNPTRTNEYEYWGQGTLVTVSS : 50 fold
